Assay: Evaluated for the inhibition of porcine heart or human L-type Adenosine 5'-monophosphate deaminase (AMPDA)
ASSAY_ENDPOINT: Ki (µM)

CCCCCCCCn1cnc2c1N=CNCC2O (stereo unspecified) :: 18
COC(=O)CCCCCCCn1cnc2c1N=CNCC2O (stereo unspecified) :: 20
O=C(O)CCCCCCCn1cnc2c1N=CNCC2O (stereo unspecified) :: 8

a: N#CCCCCCCn1cnc2c1N=CNCC2O (stereo unspecified)
b: O=C(O)CCCOCn1cnc2c1N=CNCC2O (stereo unspecified)
For the two items a and b , which reports the higher Ki value? Use the label to indicate which entry you chose.
a
(a: 170 µM, b: 85 µM)
